// data source = the supplement of paper PMC10567573

B1: DYRK1B (parent)
chain: ARKYFERLPGGGWTLRRTKELRKD

# Variants of: B1
# METHOD NOTES: protein stability index of a GFP-peptide fusion (GPS, HEK-293T) (PSI 1-6); higher = more stable;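 note: lentivirally expressed fusions sorted by FACS into six bins by GFP to DsRed ratio, PSI derived from sequencing read proportions per bin multiplied by bin number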
# EXPERIMENTAL CONDITIONS: c terminus: a fixed tail appended
Recorded protein stability index, one value per entry.
Answer with a bare number; do not write a unit.

IN: // protein stability index lookup, key: E6N
OUT: 3.07

IN: // protein stability index lookup, key: E20C
OUT: 3.69

IN: // protein stability index lookup, key: G12A
OUT: 3.06

IN: // protein stability index lookup, key: D24G
OUT: 3.24

IN: // protein stability index lookup, key: F5I
OUT: 2.91

IN: // protein stability index lookup, key: R17K
OUT: 2.69

IN: // protein stability index lookup, key: R7H
OUT: 3.08

IN: // protein stability index lookup, key: R7W
OUT: 2.81

IN: // protein stability index lookup, key: D24Q
OUT: 3.68

IN: // protein stability index lookup, key: F5G
OUT: 3.63

IN: // protein stability index lookup, key: T18R
OUT: 3.72
